target: WT STING (Homo sapiens, UniProt Q86WV6, H232R); test: Digitonin assay using 293T wtSTING-FL reporter cells; conditions: 293T wtSTING-FL cells; 30 minutes in Digitonin buffer, then 5 hours; ISRE firefly luciferase reporter; 8-point dose-response curve; read-out: Digitonin assay EC50 (μmol · l^−1) WT STING
Sequence (Q86WV6 whole entry H232R, the tested form may be a part): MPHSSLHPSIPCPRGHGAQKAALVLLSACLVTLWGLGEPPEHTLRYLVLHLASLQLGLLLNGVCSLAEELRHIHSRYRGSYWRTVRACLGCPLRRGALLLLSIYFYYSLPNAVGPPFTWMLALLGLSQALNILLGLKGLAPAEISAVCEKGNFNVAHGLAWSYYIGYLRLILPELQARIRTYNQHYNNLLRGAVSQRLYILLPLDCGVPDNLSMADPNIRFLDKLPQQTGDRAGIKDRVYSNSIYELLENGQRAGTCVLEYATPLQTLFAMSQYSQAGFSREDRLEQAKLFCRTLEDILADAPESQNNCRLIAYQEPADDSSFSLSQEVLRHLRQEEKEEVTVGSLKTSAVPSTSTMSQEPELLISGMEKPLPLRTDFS
The compounds listed here are annotated with their EC50.
Number in nM, nothing else.

Study these solved cases before continuing.
Nc1ncnc2c1ncn2[C@@H]1O[C@@H]2OCP(=O)(O)O[C@@H]3[C@H](O)[C@@H](OCP(=O)(O)O[C@H]2[C@H]1O)O[C@H]3n1cnc2c(N)ncnc21: 6700
Nc1ncnc2c1ncn2[C@@H]1O[C@@H]2OCP(=O)(O)O[C@@H]3[C@H](O)[C@@H](COP(=O)(O)O[C@H]2[C@H]1O)C[C@H]3n1cnc2c(=O)[nH]cnc21: 1100
Nc1nc2c(ncn2[C@@H]2O[C@@H]3OCP(=O)(O)O[C@H]4[C@@H](F)[C@H](n5cnc6c(N)nc(F)nc65)O[C@@H]4COP(=O)(O)O[C@@H]2[C@@H]3O)c(=O)[nH]1: 12
Nc1nc2c(ncn2[C@@H]2O[C@@H]3OCP(=O)(O)O[C@H]4[C@@H](O)[C@H](n5cnc6c(N)ncnc65)O[C@@H]4COP(=O)(O)O[C@@H]2[C@@H]3F)c(=O)[nH]1: 12

Summary: "Nc1nc2c(ncn2[C@@H]2C[C@@H]3COP(=O)(O)O[C@@H]4[C@@H](OCP(=O)(O)O[C@@H]2[C@@H]3O)O[C@@H](n2cnc3c(N)ncnc32)[C@@H]4O)c(=O)[nH]1" , WT STING (Homo sapiens, UniProt Q86WV6, H232R), EC50 = 180

The recorded EC50 with WT STING (Homo sapiens, UniProt Q86WV6, H232R) for "Nc1nc2c(ncn2[C@@H]2O[C@@H]3COP(=O)(O)O[C@@H]4[C@@H](OCP(=O)(O)O[C@@H]2C3)O[C@@H](n2cnc3c(N)ncnc32)[C@@H]4O)c(=O)[nH]1" was 50

"Nc1ncc2ncn([C@@H]3O[C@@H]4COP(=O)(O)O[C@@H]5[C@H](O)[C@@H](OCP(=O)(O)O[C@H]4[C@H]3O)O[C@H]5n3cnc4c(=O)[nH]c(N)nc43)c2n1" tested on WT STING (Homo sapiens, UniProt Q86WV6, H232R) gave EC50: 170

Reported WT STING (Homo sapiens, UniProt Q86WV6, H232R) EC50 for item Nc1nc2c(ncn2[C@@H]2O[C@@H]3COP(=O)(O)O[C@H]4[C@@H](O)[C@H](n5cnc6c(=O)[nH]c(N)nc65)O[C@@H]4COP(=O)(O)O[C@H]3[C@H]2O)c(=O)[nH]1 [3′3′c-di-GMP, reference compound] was 5800

Observed EC50 on WT STING (Homo sapiens, UniProt Q86WV6, H232R), entry Nc1nc2c(ncn2[C@@H]2O[C@@H]3OCP(=O)(O)OC4C[C@H](n5cnc6c(N)nc(Cl)nc65)O[C@@H]4COP(=O)(O)OC2C3O)c(=O)[nH]1 (stereo partly shown) , equals 50

---

target: WT STING (Homo sapiens, UniProt Q86WV6, H232R); experiment: Differential Scanning Fluorimetry with WT STING; format: binding; design: truncated human WT STING or AQ STING (amino acid residues 140-343); 8xHis (N, cleaved yes); SUMO (N, cleaved yes); made in house; host or cells: E. coli Rosetta-gami B (DE3); details: thermal shift vs STING apoprotein; 150 μM CDN; 0.1 mg/ml truncated human WT STING; SYPRO Orange; read-out: DSF ΔTm (° C.) WT STING
Sequence (Q86WV6 140-343 H232R): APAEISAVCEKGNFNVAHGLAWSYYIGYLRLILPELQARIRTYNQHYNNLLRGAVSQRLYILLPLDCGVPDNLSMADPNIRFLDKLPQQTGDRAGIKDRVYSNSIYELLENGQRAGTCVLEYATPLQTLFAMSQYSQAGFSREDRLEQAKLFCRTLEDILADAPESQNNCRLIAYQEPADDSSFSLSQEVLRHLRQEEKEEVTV
Property name: ΔTm at 150 µM
Field note: include the unit after the figure.

Input "Nc1nc2c(ncn2[C@@H]2O[C@@H]3OCP(=O)(O)O[C@H]4[C@@H](O)[C@H](n5ccc6c(N)ncnc65)O[C@@H]4COP(=O)(O)O[C@@H]2[C@@H]3O)c(=O)[nH]1" . Output ΔTm at 150 µM: 3.4 °C

Kindly note the recorded ΔTm at 150 µM for "Nc1ncnc2c1ncn2[C@@H]1O[C@@H]2OCP(=O)(O)O[C@@H]3[C@H](O)[C@@H](COP(=O)(O)O[C@H]2[C@H]1O)C[C@H]3n1cnc2c(=O)[nH]cnc21" , which is 1.8 °C

Form: compound = "Nc1ncnc2c1ncn2[C@@H]1O[C@@H]2COCP(=O)(O)O[C@@H]3[C@H](O)[C@@H](COP(=O)(O)O[C@H]2[C@H]1O)O[C@H]3n1cnc2c(N)ncnc21" ; ΔTm at 150 µM = 0.5 °C

Query "CSc1ncnc2c1ncn2[C@@H]1O[C@@H]2COP(=O)(O)O[C@@H]3[C@H](O)[C@@H](OCP(=O)(O)O[C@H]2[C@H]1O)O[C@H]3n1cnc2c(=O)[nH]c(N)nc21" yields ΔTm at 150 µM of 8.6 °C

Input "Nc1nc2c(ccn2[C@@H]2O[C@@H]3COP(=O)(O)O[C@@H]4[C@@H](OCP(=O)(O)O[C@@H]2[C@@H]3O)O[C@@H](n2cnc3c(N)ncnc32)[C@@H]4O)c(=O)[nH]1" . Output ΔTm at 150 µM: 1.7 °C

ΔTm at 150 µM reading for "Nc1nc2c(ncn2[C@@H]2O[C@@H]3OCP(=O)(O)O[C@H]4[C@@H](F)[C@H](n5cnc6c(N)nc(F)nc65)O[C@@H]4COP(=O)(O)O[C@@H]2[C@@H]3O)c(=O)[nH]1" : 13 °C

Noted for "Nc1nc2c(nnn2[C@@H]2O[C@@H]3OCP(=O)(O)O[C@H]4[C@@H](O)[C@H](n5cnc6c(N)ncnc65)O[C@@H]4COP(=O)(O)O[C@@H]2[C@@H]3O)c(=O)[nH]1" : its ΔTm at 150 µM reads 14.8 °C

---

biological target: WT STING (Homo sapiens, UniProt Q86WV6, H232R); assay: Digitonin assay using 293T wtSTING-FL reporter cells; conditions: 293T wtSTING-FL cells; 30 minutes in Digitonin buffer, then 5 hours; ISRE firefly luciferase reporter; 8-point dose-response curve; read-out: Digitonin assay EC50 (μmol · l^−1) WT STING
Each entry below carries its reported pEC50.
Worth noting: pEC50 values are minus log10 of concentrations stated in mol/L.

Example entries and their recorded answers appear below.
Cc1cn([C@@H]2O[C@@H]3COP(=O)(O)O[C@@H]4[C@@H](OCP(=O)(O)O[C@@H]2[C@@H]3O)O[C@@H](n2cnc3c(N)ncnc32)[C@@H]4O)c2nc(N)[nH]c(=O)c12 [Compound 42]: 4.34
Nc1ncnc2c1ncn2[C@@H]1O[C@@H]2OCP(=O)(O)O[C@@H]3[C@H](O)[C@@H](COP(=O)(O)O[C@H]2[C@H]1O)O[C@H]3n1cnc2c(=O)[nH]cnc21 [Compound 37]: 7.30
CNc1ncnc2c1ncn2[C@@H]1O[C@@H]2COP(=O)(O)O[C@@H]3[C@H](O)[C@@H](OCP(=O)(O)O[C@H]2[C@H]1O)O[C@H]3n1cnc2c(=O)[nH]c(N)nc21 [Compound 49]: 6.82
C#Cc1cn([C@@H]2O[C@@H]3COP(=O)(O)O[C@@H]4[C@H](O)[C@@H](OCP(=O)(O)O[C@H]3[C@H]2O)O[C@H]4n2cnc3c(=O)[nH]c(N)nc32)c2ncnc(N)c12 [Compound 53]: 7.40

As a next step, examine the molecule that follows.
pEC50 reading for Nc1nc2c(ncn2[C@@H]2O[C@@H]3COP(=O)(O)O[C@@H]4[C@H](O)[C@@H](COP(=O)(O)O[C@@H]2[C@@H]3O)O[C@H]4n2cnc3c(N)ncnc32)c(=O)[nH]1 [2′2′-cGAMP, reference compound] : 7.52

---

biological target: WT STING (Homo sapiens, UniProt Q86WV6, H232R); experiment: Digitonin assay using 293T wtSTING-FL reporter cells; conditions: 293T wtSTING-FL cells; 30 minutes in Digitonin buffer, then 5 hours; ISRE firefly luciferase reporter; 8-point dose-response curve; read-out: Digitonin assay EC50 (μmol · l^−1) WT STING
// reported pEC50 per item
# log scale: pEC50 equals minus log10 of the concentration in mol/L

Would you please look over these solved cases?
Nc1ncnc2c1ncn2[C@@H]1O[C@@H]2COP(=O)(O)O[C@@H]3[C@H](O)[C@@H](COCP(=O)(O)O[C@H]2[C@H]1O)O[C@H]3n1cnc2c(N)ncnc21: 4.90
Nc1nc2c(nnn2[C@@H]2O[C@@H]3OCP(=O)(O)OC4C(F)[C@H](n5cnc6c(N)ncnc65)O[C@@H]4COP(=O)(O)OC2C3O)c(=O)[nH]1 (stereo partly drawn): 8.10

compound "Nc1nc2c(ncn2[C@@H]2O[C@@H]3OCP(=O)(O)O[C@H]4[C@H](O)[C@H](n5cnc6c(N)nc(F)nc65)O[C@@H]4COP(=O)(O)O[C@@H]2[C@@H]3O)c(=O)[nH]1" , pEC50 observed: 7.52
